molecular target: SMAD4 (rSMAD4) (UniProt Q13485 1-552); assay: MST; 100 nM aptamer; FAM label inferred for MST; MST: 20 mM Tris-HCl pH 7.4, 5 mM KCl, 500 mM NaCl, temperature not stated; pull-down: plasma diluted twice with 10 mM Tris-HCl pH 7.4, 150 mM NaCl plus 0.85 M NaCl, RT, 30 min; conditions: protein: recombinant; tags: N-terminal His6; label: 3'-FAM; hairpin, 16 bp stem, TTTT loop, 3' A5 tail
Sequence (Q13485 whole entry): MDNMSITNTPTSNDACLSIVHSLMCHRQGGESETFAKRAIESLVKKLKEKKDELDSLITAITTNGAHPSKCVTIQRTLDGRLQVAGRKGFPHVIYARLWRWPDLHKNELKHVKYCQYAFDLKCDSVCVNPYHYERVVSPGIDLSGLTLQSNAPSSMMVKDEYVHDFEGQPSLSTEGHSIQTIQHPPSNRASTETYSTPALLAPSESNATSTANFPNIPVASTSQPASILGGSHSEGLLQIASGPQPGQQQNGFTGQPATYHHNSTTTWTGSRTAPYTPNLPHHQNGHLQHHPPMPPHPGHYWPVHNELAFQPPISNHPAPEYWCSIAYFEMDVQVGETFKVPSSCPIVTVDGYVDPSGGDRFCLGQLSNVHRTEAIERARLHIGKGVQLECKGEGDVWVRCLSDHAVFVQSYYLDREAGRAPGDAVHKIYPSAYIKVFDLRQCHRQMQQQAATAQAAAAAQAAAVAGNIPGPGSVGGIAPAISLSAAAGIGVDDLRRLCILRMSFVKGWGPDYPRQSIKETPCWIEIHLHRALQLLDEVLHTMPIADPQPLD
attribute.measured: Kd (µM)
Numbers only, in µM.

Request the reported Kd associated with CGAAGTCTAGACAGCGTTTTCGCTGTCTAGACTTCGAAAAA (structured_DNA) [Anti-SMAD4 aptamer, 3'-FAM]
0.045
